Assay read-out IC50 on Receptor-type tyrosine-protein kinase FLT3 (Homo sapiens); records merged from the literature.

# example entries with known answers
[[record]]
structure = "CC(C)Nc1ncc2c(OC3CCOCC3)ncc(-c3cccc(S(C)(=O)=O)c3)c2n1"
recorded_measurement = "1000 to 10000 nM"

[[record]]
structure = "COC[C@H](C)Nc1ncc2c(-c3cnn(C(F)F)c3)cc([C@H]3CC[C@H](O)CC3)n2n1"
recorded_measurement = "100 to 1000 nM"

[[record]]
structure = "COc1cc(/C=C/c2cc(-c3ccccc3)[nH]n2)ccc1O"
recorded_measurement = "50 to 500 nM"


// below: IC50 requested for another compound
Query: Need IC50, item COC[C@H](C)Nc1ncc2c(-c3cnn(CC(=O)N(C)C)c3)cc([C@H]3CC[C@H](O)CC3)n2n1
Reply: 100 to 1000 nM

* * *

Assay read-out IC50 on Receptor-type tyrosine-protein kinase FLT3 (Homo sapiens, UniProt P36888); records merged from the literature.

# example entries with known answers
[[record]]
molecule = "CCc1nc2c(N)ncc(-c3cnn(C4CCN(C5CCOCC5)CC4)c3)c2nc1N[C@@H]1CC[C@H](O)C1"
measurement_type = "IC50"
recorded_measurement = "≤ 10 nM"

[[record]]
molecule = "CCc1nc2c(N)ncc(-c3ccc(N4CCC(N5CC[C@H](NC)C5)CC4)c(OC)c3)c2nc1NC1CCOCC1"
measurement_type = "IC50"
recorded_measurement = "≤ 10 nM"


# batch size: 4; output IC50 per entry
1. CCc1nc2c(N)ncc(-c3cnn(C4CCN(CC)CC4)c3)c2nc1N[C@@H]1CC[C@H](O)C1
2. CN1CCN(c2ccc3cc2COC/C=C/COCc2cccc(c2)-c2ccnc(n2)N3)CC1
3. COC[C@H](C)Nc1ncc2c(-c3ccc(CN4CCN(c5nccc(C)n5)CC4)cc3)cc([C@H]3CC[C@H](O)CC3)n2n1
4. CCc1ccc(Nc2ccc(Cc3c[nH]c4ncnc(OCCOC)c34)c(F)n2)cn1

Reply:
≤ 10 nM
≤ 1000 nM
100 to 1000 nM
< 10 nM

Query: Need IC50, item CC[C@H](C)Nc1ncc2c(OC3C[C@@H](C)O[C@@H](C)C3)ncc([C@H]3CC[C@H](O)CC3)c2n1 (stereo partly shown)
Reply: 1000 to 10000 nM

* * *

Assay read-out IC50 on Receptor-type tyrosine-protein kinase FLT3 (Homo sapiens, UniProt P36888); records merged from the literature.

# example entries with known answers
[[record]]
structure = "O=C1Nc2cc(NC(=O)c3c[nH]cc(-c4ccc(F)cc4)c3=O)c(F)cc2/C1=C/c1ccc[nH]1"
recorded_measurement = "37.9 nM"

[[record]]
structure = "CCc1nc2c(N)ncc(-c3cnn(-c4ccc(Cl)c(C)c4)c3)c2nc1N[C@@H]1CC[C@H](O)C1"
recorded_measurement = "10 to 100 nM"

[[record]]
structure = "CN1CCN(c2ccc3nc(-c4c(N[C@H]5CCC[C@H]5O)c5ccsc5[nH]c4=O)[nH]c3c2)CC1"
recorded_measurement = "≤ 50 nM"

[[record]]
structure = "CCc1nc2c(N)ncc(-c3cnn(-c4ccc(C(C)(C)O)c(F)c4)c3)c2nc1N[C@@H]1CC[C@H](O)C1"
recorded_measurement = "≤ 10 nM"

[[record]]
structure = "CCc1nc2c(N)ncc(-c3cnn(-c4ccnc(C)n4)c3)c2nc1N[C@H]1CCOC1"
recorded_measurement = "10 to 100 nM"


# batch size: 2; output IC50 per entry
1. C[C@H](Nc1ncc2c(OC3CCOCC3)ncc([C@H]3CC[C@H](O)CC3)c2n1)C(F)F
2. CCc1nc2c(N)ncc(-c3cn[nH]c3)c2nc1N[C@@H]1CC[C@H](O)C1

Reply:
["1000 to 10000 nM", "≤ 10 nM"]
